Test system: UACC-257 melanoma
Assay: NCI tumour cell line growth inhibition, 48 h
measure: TGI

Look over these answered cases.
compound	experimentalSystem	measure	experimentalValue
COc1cc(CCc2ccc(N)cc2)cc(OC)c1OC	UACC-257 melanoma	TGI	> 100 µM
CC[C@H](C)[C@H](NC(=O)[C@H]1CCCCN1C)C(=O)N(C)[C@H](C[C@@H](OC(C)=O)c1nc(C(=O)N[C@@H](Cc2ccccc2)C[C@H](C)C(=O)O)cs1)C(C)C	UACC-257 melanoma	TGI	> 16.5 µM

Would you kindly look at the next entry?
Task: GET /values?readout=TGI&item= NC(=O)NC1C(C(N)=O)N(Cc2ccccc2)C(=O)N1Cc1ccccc1 (stereo not drawn)
Output: > 100 µM
